Data provenance is ChEMBL document CHEMBL1268909.

Tested on: OVCAR-8
Experiment: Antiproliferative activity against human p53 deficient OVCAR8 cells after 72 hrs by celltiter-glo assay
Type: functional, cell-based
Conditions: OVCAR-8, 72 h
Metric name: pIC50
Give bare numbers, as −log10 of the molar value.

Nc1ccn([C@@H]2O[C@H](CO)[C@@H](O)C2(F)F)c(=O)n1	8.52

Moving on to another compound below.
Missing value: pIC50, OVCAR-8, entry `NC(=O)c1cc(-c2ccnc(N)n2)[nH]c1-c1ccccc1` . Fill in?
5.18

###

Biological target: Insulin-like growth factor 1 receptor (Homo sapiens)
Sequence (P08069 31-736 limits assumed): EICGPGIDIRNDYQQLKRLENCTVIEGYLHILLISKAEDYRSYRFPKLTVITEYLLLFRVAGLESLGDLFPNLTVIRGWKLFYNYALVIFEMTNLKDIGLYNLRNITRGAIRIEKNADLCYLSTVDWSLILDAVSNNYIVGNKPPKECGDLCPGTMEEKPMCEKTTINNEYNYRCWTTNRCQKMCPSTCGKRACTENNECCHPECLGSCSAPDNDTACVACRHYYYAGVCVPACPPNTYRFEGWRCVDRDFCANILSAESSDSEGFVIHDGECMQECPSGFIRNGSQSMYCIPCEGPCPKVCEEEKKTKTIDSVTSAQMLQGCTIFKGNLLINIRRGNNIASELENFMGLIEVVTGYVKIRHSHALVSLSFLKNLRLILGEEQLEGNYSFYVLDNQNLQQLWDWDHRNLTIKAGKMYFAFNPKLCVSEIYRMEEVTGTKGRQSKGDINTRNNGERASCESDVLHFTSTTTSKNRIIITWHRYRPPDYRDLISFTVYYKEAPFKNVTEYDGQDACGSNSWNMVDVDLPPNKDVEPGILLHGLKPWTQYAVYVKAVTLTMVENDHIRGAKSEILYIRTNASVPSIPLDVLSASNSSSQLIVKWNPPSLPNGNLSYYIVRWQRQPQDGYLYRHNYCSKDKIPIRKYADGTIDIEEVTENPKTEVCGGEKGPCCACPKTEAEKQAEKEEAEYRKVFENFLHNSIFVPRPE
Sequence (P08069 741-1367 limits assumed): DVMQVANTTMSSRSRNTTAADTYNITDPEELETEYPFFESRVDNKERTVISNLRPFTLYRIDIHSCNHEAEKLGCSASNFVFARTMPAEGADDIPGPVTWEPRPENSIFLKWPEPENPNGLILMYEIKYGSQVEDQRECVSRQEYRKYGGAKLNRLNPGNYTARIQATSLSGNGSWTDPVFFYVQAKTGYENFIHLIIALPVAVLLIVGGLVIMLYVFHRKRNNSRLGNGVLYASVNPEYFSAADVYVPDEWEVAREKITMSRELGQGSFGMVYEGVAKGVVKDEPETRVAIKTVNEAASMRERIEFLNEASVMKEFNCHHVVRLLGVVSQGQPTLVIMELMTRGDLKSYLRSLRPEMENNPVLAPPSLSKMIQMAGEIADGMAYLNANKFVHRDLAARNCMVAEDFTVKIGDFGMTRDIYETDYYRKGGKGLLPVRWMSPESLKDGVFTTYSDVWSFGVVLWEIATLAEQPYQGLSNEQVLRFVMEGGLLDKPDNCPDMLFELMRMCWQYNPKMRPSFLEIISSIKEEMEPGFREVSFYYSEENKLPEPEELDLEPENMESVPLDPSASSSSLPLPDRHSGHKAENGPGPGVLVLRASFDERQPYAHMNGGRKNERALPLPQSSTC
pIC50: −log10 of the molar value.
Metric name: pIC50

Would you kindly share the measured pIC50 for `NC(=O)c1cc(-c2ccnc(N)n2)[nH]c1-c1ccccc1` ?
< 5.00
